tested on: 171881-019-R-J1-PDC tumor spheroids, viability; experiment: Anticancer human tumor 171881-019-R-J1-PDC patient-derived invasive breast carcinoma cell line growth inhibition [GQUAD]; details: second compound 1 µM; first compound 3.16 µM; spheroids with HUVEC and MSC; active means viability on the fitted dose curve at most 10% of control; inactive means the rest;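 further: spheroids exposed to compounds for 7 days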
Respond with a class label; see active, inactive

See these solved cases before continuing.
>>> label_value("Nc1ccn(C2OC(CO)C(O)C2(F)F)c(=O)n1 (stereo unspecified) + Cc1[nH]c2ccc(F)cc2c1-c1nc2c3cccnc3c3ncccc3c2[nH]1")
"inactive"
>>> label_value("COc1cccc2c1C(=O)c1c(O)c3c(c(O)c1C2=O)CC(O)(C(=O)CO)CC3OC1CC(N)C(O)C(C)O1 (stereo unspecified) + CN(C)c1ccc(Nc2c3ccc(NC(=O)CCN4CCCC4)cc3nc3cc(NC(=O)CCN4CCCC4)ccc23)cc1")
"active"

GET /call?item= COc1ccc([C@@H](O)c2cc(-c3ncnc4cc(N5CCOCC5)ccc34)c(F)cc2Cl)nn1 + CN(C)c1ccc(Nc2c3ccc(NC(=O)CCN4CCCC4)cc3nc3cc(NC(=O)CCN4CCCC4)ccc23)cc1 returns the recorded outcome of this test. active

Status in this test for O=C(c1cc(Cc2n[nH]c(=O)c3ccccc23)ccc1F)N1CCN(C(=O)C2CC2)CC1 + CN(C)c1ccc(Nc2c3ccc(NC(=O)CCN4CCCC4)cc3nc3cc(NC(=O)CCN4CCCC4)ccc23)cc1 ? inactive

Identify the outcome logged in this assay for the compound shown: CC(C)n1c(=O)n(C)c2cnc3cc(F)c(-c4ccc(OCCCN5CCCCC5)nc4)cc3c21 + Cc1cnc(CNC(=O)c2c(=O)c3ccc(N4CCCN(C)CC4)nc3n3c2sc2ccccc23)cn1 inactive

Can you look up the reported call for O=c1[nH]cc(F)c(=O)[nH]1 + Cc1[nH]c2ccc(F)cc2c1-c1nc2c3cccnc3c3ncccc3c2[nH]1 for me? inactive
